- assayed_target: Aurora kinase A (Homo sapiens) (UniProt O14965)
- Sequence (O14965 whole entry): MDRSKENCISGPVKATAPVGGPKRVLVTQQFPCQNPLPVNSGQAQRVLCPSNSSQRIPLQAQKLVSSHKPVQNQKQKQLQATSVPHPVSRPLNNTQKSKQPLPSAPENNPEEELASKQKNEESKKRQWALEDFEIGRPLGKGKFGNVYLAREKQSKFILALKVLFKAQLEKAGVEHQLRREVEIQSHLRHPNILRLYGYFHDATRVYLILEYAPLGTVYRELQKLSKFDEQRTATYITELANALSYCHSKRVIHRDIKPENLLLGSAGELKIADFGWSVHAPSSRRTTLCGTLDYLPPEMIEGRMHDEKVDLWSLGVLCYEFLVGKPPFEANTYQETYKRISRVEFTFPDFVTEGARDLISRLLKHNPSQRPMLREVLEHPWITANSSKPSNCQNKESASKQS
- assay_conditions: Compound concentration 20.0 uM, Protein concentration 2.0 uM, Result type QC Liability
- Description: Thermal Shift Assay. Domain: start/stop: E122-S403
Just a reminder that ties go to false (0): only ΔTm strictly below 0.01 °C counts as true (1).

[
  {
    "compound": "C=CC(=O)N1CCC[C@@H](n2nc(-c3ccc(Oc4ccccc4)cc3)c3c(N)ncnc32)C1",
    "discrete_label": "false (0)"
  },
  {
    "compound": "CN1CCN(C(=O)Cc2ccc(N/C(=C3\\C(=O)Nc4cc(Cl)ccc43)c3ccccc3)cc2)CC1",
    "discrete_label": "false (0)"
  },
  {
    "compound": "CN(C(=O)CCOCCOCCOCCOCCNc1cccc2c1C(=O)N(C1CCC(=O)NC1=O)C2=O)[C@H]1CC[C@@]2(C)[C@@H](CC[C@@H]3[C@@H]2CC[C@]2(C)[C@@H](c4ccc5ccncc5c4)CC[C@@H]32)C1 (some centres not stated)",
    "discrete_label": "true (1)"
  },
  {
    "compound": "CNC(=O)c1cc(C(=O)NC2CC2)cn(Cc2ccccc2)c1=O",
    "discrete_label": "true (1)"
  },
  {
    "compound": "CC[C@H]1[C@@H](O)[C@@H]2[C@H](CC[C@]3(C)[C@@H]([C@H](C)CCC(=O)O)CC[C@@H]23)[C@@]2(C)CC[C@@H](O)C[C@@H]12",
    "discrete_label": "true (1)"
  },
  {
    "compound": "C[C@H](CCC(=O)O)[C@H]1CC[C@H]2[C@@H]3[C@@H](O)C[C@@H]4C[C@H](O)CC[C@]4(C)[C@H]3CC[C@]12C",
    "discrete_label": "true (1)"
  },
  {
    "compound": "CCN(CC)CCO[C@H]1CC[C@@]2(C)C(=CC[C@@H]3[C@@H]2CC[C@]2(C)C(=O)CC[C@@H]32)C1",
    "discrete_label": "true (1)"
  },
  {
    "compound": "C[C@@H](CN1CC[C@@]2(C)c3cccc(O)c3C[C@@H]1C2(C)C)OCc1ccccc1",
    "discrete_label": "false (0)"
  },
  {
    "compound": "CCCn1cc(-c2cc(C3C(=O)N(CC)c4ccc(C(F)(F)F)cc4N(c4ccccc4)C3=O)cc(OC)c2O)cn1 (configuration not stated)",
    "discrete_label": "false (0)"
  },
  {
    "compound": "CCC(=O)O[C@@H](OP(=O)(CCCCc1ccccc1)CC(=O)N1C[C@H](C2CCCCC2)C[C@H]1C(=O)O)C(C)C (some centres not stated)",
    "discrete_label": "true (1)"
  },
  {
    "compound": "O=C(NCCN1CCC2(CC1)C(=O)NCN2c1cccc(F)c1)c1ccc2ccccc2c1",
    "discrete_label": "false (0)"
  },
  {
    "compound": "C[C@]12CC[C@@H]3c4ccc(C(N)=O)cc4CC[C@H]3[C@@H]1CC=C2c1cncc(F)c1",
    "discrete_label": "false (0)"
  },
  {
    "compound": "Cc1nnc2n1-c1sc3c(c1C(c1ccccc1Cl)=NC2)CC(C(=O)N1CCOCC1)C3 (configuration not stated)",
    "discrete_label": "false (0)"
  },
  {
    "compound": "CCOP(=O)(OCC)C(=Cc1cc(C(C)(C)C)c(O)c(C(C)(C)C)c1)P(=O)(OCC)OCC",
    "discrete_label": "true (1)"
  },
  {
    "compound": "COc1ccc(-n2nc(C(F)(F)F)cc2-c2ccc(Cl)cc2)cc1",
    "discrete_label": "true (1)"
  },
  {
    "compound": "COc1ccc(OC(=O)N(CC(=O)O)Cc2ccc(OCCc3nc(-c4ccccc4)oc3C)cc2)cc1",
    "discrete_label": "true (1)"
  }
]
